# tgt: UniProtKB O75173
# Sequence (O75173 213-837, species assumed): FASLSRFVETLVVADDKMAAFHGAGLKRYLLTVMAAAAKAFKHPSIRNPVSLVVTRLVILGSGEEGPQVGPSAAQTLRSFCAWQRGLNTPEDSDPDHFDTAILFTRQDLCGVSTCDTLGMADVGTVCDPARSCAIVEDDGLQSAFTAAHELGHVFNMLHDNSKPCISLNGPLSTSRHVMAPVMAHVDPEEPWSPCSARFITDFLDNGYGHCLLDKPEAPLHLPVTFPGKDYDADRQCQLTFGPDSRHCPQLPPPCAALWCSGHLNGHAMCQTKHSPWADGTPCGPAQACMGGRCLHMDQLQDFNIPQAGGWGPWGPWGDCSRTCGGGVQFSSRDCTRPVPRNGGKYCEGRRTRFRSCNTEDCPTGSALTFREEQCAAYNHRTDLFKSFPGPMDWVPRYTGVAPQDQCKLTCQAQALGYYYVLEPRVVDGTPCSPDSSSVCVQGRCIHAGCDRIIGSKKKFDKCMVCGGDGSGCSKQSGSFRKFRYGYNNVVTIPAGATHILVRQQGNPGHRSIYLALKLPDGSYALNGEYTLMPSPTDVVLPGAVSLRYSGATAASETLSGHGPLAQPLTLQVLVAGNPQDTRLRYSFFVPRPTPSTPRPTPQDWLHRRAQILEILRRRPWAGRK
# protocol_description: Aggrecanase-1 inhibitory action (Particle Assay, GAG release from aggrecan-containing polyacrylamide particles)
# Type: biochemical
# condition_details: Experimental Example 1; read-out: IC50 AG1
parameter: IC50

The cases that follow already have their IC50 on record.
[
  {
    "compound": "O=C(NCCO)OCC1(c2ccccc2)CC1(NS(=O)(=O)c1ccc(-c2cc(C(F)(F)F)on2)s1)C(=O)O (centres unmarked)",
    "tgt": "UniProtKB O75173",
    "reading": "< 1000 nM"
  },
  {
    "compound": "O=C(NO)C1(NS(=O)(=O)c2ccc(-c3ccc(Cl)cc3)s2)C2CCCc3ccccc3C21 (centres unmarked)",
    "tgt": "UniProtKB O75173",
    "reading": "≥ 1000 nM"
  },
  {
    "compound": "CC1[C@H](c2ccccc2)[C@]1(NS(=O)(=O)N1CCCN(c2ccc(Cl)cn2)CC1)C(=O)O (some centres unmarked)",
    "tgt": "UniProtKB O75173",
    "reading": "< 1000 nM"
  },
  {
    "compound": "CNC(=O)[C@]1(NS(=O)(=O)c2ccc(-c3cc(C(F)(F)F)on3)s2)C(C)[C@@H]1c1ccccc1 (some centres unmarked)",
    "tgt": "UniProtKB O75173",
    "reading": "≥ 1000 nM"
  },
  {
    "compound": "CC1CCC(c2ccc(S(=O)(=O)N[C@@]3(C(=O)O)C[C@]3(C)c3ccccc3)cc2)CC1 (some centres unmarked)",
    "tgt": "UniProtKB O75173",
    "reading": "≥ 1000 nM"
  }
]

Field: IC50. Fill in for each record below.
1. CCOC(=O)c1cnn(-c2ccc(S(=O)(=O)N[C@@]3(C(=O)O)C(C)[C@@H]3c3ccccc3)s2)c1 (some centres unmarked)
2. CC1[C@H](c2ccccc2)[C@]1(NS(=O)(=O)c1ccc(-n2cc(C(F)(F)F)cn2)nc1)C(=O)O (some centres unmarked)
3. O=C1CCCN1c1cccc(C2CC2(NS(=O)(=O)c2ccc(-c3cc(C(F)(F)F)on3)s2)C(=O)O)c1 (centres unmarked)
4. C[C@@H]1CN(CC2(c3ccccc3)CC2(NS(=O)(=O)c2ccc(-c3ccc(Cl)cc3)s2)C(=O)O)C[C@H](C)O1 (some centres unmarked)
5. COc1cccc(C2(C)CC2(NS(=O)(=O)c2ccc(-c3cc(C(F)(F)F)on3)s2)C(=O)O)c1 (centres unmarked)
6. C[C@]1(c2ccccc2)C[C@@]1(NS(=O)(=O)c1ccc(-n2cc(Cl)cn2)s1)C(=O)O
7. O=C(O)C1(NS(=O)(=O)c2ccc(-c3cc(C(F)(F)F)on3)s2)CC1c1cccc(NS(=O)(=O)N2CCOCC2)c1 (centres unmarked)

1: < 1000 nM; 2: ≥ 1000 nM; 3: < 1000 nM; 4: < 100 nM; 5: < 100 nM; 6: < 100 nM; 7: < 100 nM

Field: IC50. Fill in for each record below.
1. CC(C)N1CCN(c2ccc(S(=O)(=O)N[C@@]3(C(=O)O)C[C@]3(C)c3ccccc3)s2)CC1
2. CC1[C@H](c2ccccc2)[C@]1(NS(=O)(=O)c1ccc(-c2cc(C#N)on2)s1)C(=O)O (some centres unmarked)

≥ 1000 nM
< 100 nM
